assay: serotonin-gated TRPC4 signal block – cell-based, second counter screen, HEK293 TRPC4/5HT1a, Fluo-4, counter-screen for TRPC4 inhibitor project, confirmation (AID 434978); conditions: Fluo-4 calcium flux, at 10 µM, serotonin added to trigger calcium flux;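 as to outcome: serotonin given first at submaximal then at maximal dose after compound preincubation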
Active and inactive are the calls of the source.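 The calls were made as follows: active = primary screen active whose calcium signal fell more than 3 SD beyond the full-serotonin control mean in both duplicate plates; inactive = the rest.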
Respond with a class label; see active, inactive

In: Which outcome was entered for the compound Cc1ccc(N(C(=O)c2snc(C(N)=O)c2N)C(C(=O)NCC2CCCO2)c2ccc(C)o2)c(C)c1 (stereo not given) in this test?
Out: active

In: Which outcome was entered for the compound CCOc1ccc(OCC(O)CNC2CCN(Cc3ccccc3)CC2)cc1 (stereo not given) in this test?
Out: active

In: Which outcome was entered for the compound `O=[N+]([O-])c1ccc(C[n+]2cccc(O)c2)cc1` in this test?
Out: inactive

In: Which outcome was entered for the compound CCN(CC)C(=O)C1CCCN(Cc2cccc(Oc3ccccc3)c2)C1 (stereo not given) in this test?
Out: active

In: Which outcome was entered for the compound `CC(C)Oc1cc(N)c(Cl)cc1Cl` in this test?
Out: inactive

In: Which outcome was entered for the compound CCOC(=O)CC(NC(=O)c1cc2cc(Br)ccc2oc1=O)c1cccc([N+](=O)[O-])c1 (stereo not given) in this test?
Out: inactive

In: Which outcome was entered for the compound `CCCCCn1c2c(c(=N)c3ccccc31)CCC2` in this test?
Out: active

In: Which outcome was entered for the compound `Cc1csc2c(N3CCN(C(=O)Nc4ccc(OC(F)(F)F)cc4)CC3)ncnc12` in this test?
Out: inactive

In: Which outcome was entered for the compound `CC[C@@H](C)[C@H](CNC)NC[C@@H](Cc1cccc2ccccc12)NCCc1cccc(C(F)(F)F)c1` in this test?
Out: inactive

In: Which outcome was entered for the compound `CCCCc1ccc(NC(=O)CSc2nnc(C)c(=O)n2N)cc1` in this test?
Out: inactive

###

target: Short transient receptor potential channel 4 (Mus musculus) (UniProt Q9QUQ5); experiment: calcium flux activators in TRPC4/5HT1a cells, counter-screen for TRPC4 activator project, cell-based, second counter screen, HEK293 TRPC4/5HT1a, Fluo-4 (AID 434977); details: Fluo-4 calcium flux, at 10 µM
Calls of active or inactive are those of the source.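 Rule for the calls: active = calcium signal rise above buffer-control mean plus 5 SD in both duplicates, and also a hit in the primary screen; inactive = the rest.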
Respond with a class label; see 1 for active, 0 for inactive

In: Which outcome was entered for the molecule `C=CCn1c(SCCN2CCCCC2)nc2c1c(=O)[nH]c(=O)n2C` in this test?
Out: 0

In: Which outcome was entered for the molecule `O=C(NC(=S)NNC(=O)c1cccs1)c1ccc(Br)o1` in this test?
Out: 1

In: Which outcome was entered for the molecule `Cc1[nH]nc(Nc2ccccc2)c1[N+](=O)[O-]` in this test?
Out: 0

In: Which outcome was entered for the molecule CC(=O)Nc1ccc(CN2CCCC(CO)(Cc3ccccc3C)C2)cc1 (stereo unspecified) in this test?
Out: 0

In: Which outcome was entered for the molecule CCC1CCCCN1Cc1nc2c(c(=O)n(C)c(=O)n2C)n1Cc1ccccc1 (stereo unspecified) in this test?
Out: 0

In: Which outcome was entered for the molecule `O=C(C[N+]1(CC#Cc2ccccc2)CCCCC1)c1ccc(Cl)cc1` in this test?
Out: 0

###

system: TRPC4 beta (transient receptor potential cation channel C4), mouse; test: potentiation of DAMGO EC20 TRPC4 response – cell-based, Fluo-4, HEK293 TRPC4beta/mu-opioid, confirmation (AID 2555); settings: DAMGO EC20, Fluo-4 calcium flux, at 10 µM
Calls of active or inactive are those of the source.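 Rule for the calls: active = primary screen hit whose calcium fluorescence ratio, in both repeats, exceeds the weak agonist control mean by 3 SD; inactive = the rest.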
Respond with a class label; see active, inactive

In: Which outcome was entered for the compound `COc1ccc(C(=O)Nc2nc(-c3cccs3)cs2)cc1` in this test?
Out: inactive

In: Which outcome was entered for the compound `COc1ccc(-c2nc(CSCC(=O)NC3CCN(Cc4ccccc4)CC3)c(C)o2)cc1OC` in this test?
Out: inactive

In: Which outcome was entered for the compound CCC(=O)NC(C)C(c1cccs1)N1CCN(c2ccccc2)CC1 (configuration not stated) in this test?
Out: inactive

In: Which outcome was entered for the compound `CCn1c(CN2CCN(C(c3ccccc3)c3ccccc3)CC2)nc2c1c(=O)n(C)c(=O)n2C` in this test?
Out: inactive

In: Which outcome was entered for the compound `O=C(Cn1nc(-c2ccccc2)ccc1=O)NCCN1CCN(Cc2ccccc2)CC1` in this test?
Out: inactive

In: Which outcome was entered for the compound `CC(C)(C)C(=O)NCCCc1nc2ccccc2n1CCCOc1ccc(Cl)cc1` in this test?
Out: inactive

In: Which outcome was entered for the compound CN(C)C(CNC(=O)c1cccc(C(F)(F)F)c1)c1ccco1 (configuration not stated) in this test?
Out: inactive

In: Which outcome was entered for the compound `Cc1ccc(CSc2nc(-c3ccccc3)c(C#N)c(=O)[nH]2)cc1` in this test?
Out: inactive

In: Which outcome was entered for the compound Cc1ccc(Cn2c(=N)c(C(=O)NCC3CCCO3)cc3c(=O)n4ccccc4nc32)cc1 (configuration not stated) in this test?
Out: active

In: Which outcome was entered for the compound CCOc1ccc(OCC(O)CNC2CCN(Cc3ccccc3)CC2)cc1 (configuration not stated) in this test?
Out: inactive

In: Which outcome was entered for the compound `Cc1ccc(Nc2cc(C)nc3ccc(C)cc23)cc1` in this test?
Out: inactive

In: Which outcome was entered for the compound CC(C)(C)n1nnnc1C(c1ccc(Cl)cc1)N(Cc1cccnc1)Cc1ccco1 (configuration not stated) in this test?
Out: inactive

In: Which outcome was entered for the compound `CN(C)c1ccc(-c2sc(Nc3ccccc3)n[n+]2-c2ccc(F)cc2)cc1` in this test?
Out: inactive

In: Which outcome was entered for the compound COc1cccc(O)c1CN1CCCC(C(=O)c2cccc(C(F)(F)F)c2)C1 (configuration not stated) in this test?
Out: inactive

In: Which outcome was entered for the compound `CNCCOc1ccc(Cl)c(Cl)c1` in this test?
Out: active

In: Which outcome was entered for the compound `CCOCc1cn(CC(=O)c2ccc(Cl)cc2)c(C)nc1=N` in this test?
Out: inactive

In: Which outcome was entered for the compound COc1ccc(/C=N/NC(=O)C2COc3ccccc3O2)cc1OC (configuration not stated) in this test?
Out: inactive

In: Which outcome was entered for the compound CC(C)CCOc1ccc(C(=O)NCC(c2ccco2)N(C)C)cc1 (configuration not stated) in this test?
Out: inactive

In: Which outcome was entered for the compound `CCN(Cc1ccccc1)S(=O)(=O)c1ccc(C(=O)N(CCCN(C)C)c2nc3c(F)cccc3s2)cc1` in this test?
Out: inactive

In: Which outcome was entered for the compound `Cc1ccc2nc(C)cc(Nc3ccc4c(c3)OCCO4)c2c1` in this test?
Out: inactive

In: Which outcome was entered for the compound `COc1cc(CNCCCN2CCOCC2)cc(Br)c1OCc1ccc(Cl)cc1` in this test?
Out: inactive

In: Which outcome was entered for the compound `CCN1CCN(c2ccc(S(=O)(=O)N3CCOCC3)cc2NC(=O)/C=C/c2ccc(OC)cc2OC)CC1` in this test?
Out: inactive

###

system: transient receptor potential cation channel C4 beta (TRPC4), mouse; experiment: TRPC4 cation channel opening, second retest – cell-based, second round, Fluo4, HEK293 TRPC4beta/mu-opioid, 1 µM, confirmation (AID 2461); conditions: Fluo4 calcium fluorescence, at 1 µM
Active and inactive are the calls of the source.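 How the source made its calls: active means primary screen active and over 50% activation in each of two duplicate runs; inactive means the rest.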
Respond with a class label; see active, inactive

In: Which outcome was entered for the molecule `COc1ccc(OC)c(Nc2c3c(nc4ccccc24)CCC3)c1` in this test?
Out: inactive

In: Which outcome was entered for the molecule `Nc1cc(C(F)(F)F)ccc1Nc1ccccc1` in this test?
Out: inactive

In: Which outcome was entered for the molecule N#CC1=C(N)C(C#N)(C#N)C(c2cccnc2)C2CC(c3ccccc3)CC=C12 (stereo not given) in this test?
Out: inactive

In: Which outcome was entered for the molecule `Fc1ccccc1COc1ccccc1CNCc1ccncc1` in this test?
Out: inactive

In: Which outcome was entered for the molecule `COc1ccc(CCN(C)C(=O)c2cc(S(=O)(=O)N3CCCCC3)ccc2Cl)cc1OC` in this test?
Out: inactive

In: Which outcome was entered for the molecule Fc1ccccc1CNCCC(Cc1ccccc1)c1ccc2c(c1)OCO2 (stereo not given) in this test?
Out: inactive

In: Which outcome was entered for the molecule `CNC(=S)NNC(=O)c1cccn(Cc2cccc(C(F)(F)F)c2)c1=O` in this test?
Out: inactive

In: Which outcome was entered for the molecule `Cc1ccc2[nH]c3c(N4CCc5ccccc5C4)ncnc3c2c1` in this test?
Out: inactive

In: Which outcome was entered for the molecule `COCCn1c(SCc2ccc(F)cc2)nc2ccccc2c1=O` in this test?
Out: inactive

In: Which outcome was entered for the molecule CC(CCc1ccc(O)cc1)N(C)CCc1ccccc1 (stereo not given) in this test?
Out: inactive

In: Which outcome was entered for the molecule `Cc1ccc(NS(=O)(=O)c2cc(C(=O)N3CCc4ccccc4C3)ccc2Cl)cc1` in this test?
Out: inactive

In: Which outcome was entered for the molecule `O=C(C[n+]1cc(-c2ccc(Cl)c(Cl)c2)n2c1CCC2)N1c2ccccc2Sc2ccccc21` in this test?
Out: inactive

In: Which outcome was entered for the molecule `COc1ccc2c(c1)sc(N)[n+]2Cc1cc(C)cc2cccnc12` in this test?
Out: inactive

In: Which outcome was entered for the molecule `O=C(NCCCN1CCN(CCCNC(=O)c2cccc(Cl)c2)CC1)c1cccc(Cl)c1` in this test?
Out: inactive

In: Which outcome was entered for the molecule `Cc1ccc(C(=O)Nc2nnc(C3=COCCO3)o2)cc1C` in this test?
Out: inactive

In: Which outcome was entered for the molecule `Cc1cc(NC(=O)CSCC(=O)Nc2ccc(Cl)c(C(F)(F)F)c2)no1` in this test?
Out: inactive

In: Which outcome was entered for the molecule `CC(C)NC(=S)N1CCN(C/C=C/c2ccccc2)CC1` in this test?
Out: inactive

In: Which outcome was entered for the molecule CCOC(=O)C1(CC2CCCCO2)CCN(Cc2cc(F)ccc2-n2cccn2)CC1 (stereo not given) in this test?
Out: inactive

In: Which outcome was entered for the molecule COc1ccccc1C1/C(=C(\O)c2ccc3c(c2)OCCO3)C(=O)C(=O)N1Cc1cccnc1 (stereo not given) in this test?
Out: inactive

In: Which outcome was entered for the molecule CC(C)C(NC(=O)c1ccc(C(C)(C)C)cc1)C(=O)NCC(c1ccccc1)N(C)C (stereo not given) in this test?
Out: inactive

In: Which outcome was entered for the molecule `O=C(CCN1CCN(Cc2ccccc2)CC1)Nc1cccc(Br)c1` in this test?
Out: inactive

In: Which outcome was entered for the molecule `CSc1nnc(Cc2sc(-c3ccccc3)nc2-c2ccccc2)o1` in this test?
Out: inactive

In: Which outcome was entered for the molecule COc1ccccc1N1CCN(CC(C)N(C(=O)C2CCCCC2)c2ccccn2)CC1 (stereo not given) in this test?
Out: inactive

In: Which outcome was entered for the molecule `C/C=C(/C)C(=O)O[C@@H]1c2cc(OC)c(OC)c(OC)c2-c2c(cc3c(c2OC)OCO3)C[C@H](C)[C@]1(C)O` in this test?
Out: inactive

In: Which outcome was entered for the molecule `O=c1c2cc(Br)ccc2nc(-c2cccc(Cl)c2)n1O` in this test?
Out: inactive

In: Which outcome was entered for the molecule OC(CNCCC(c1ccccc1)c1ccccc1)COc1ccccc1 (stereo not given) in this test?
Out: inactive

In: Which outcome was entered for the molecule `CCN1CCN(c2ncnc3sc(C)c(-c4ccccc4)c23)CC1` in this test?
Out: inactive

In: Which outcome was entered for the molecule `NS(=O)(=O)c1ccc(CCNCc2ccccc2OCc2ccc(F)cc2)cc1` in this test?
Out: inactive

In: Which outcome was entered for the molecule `COc1cccc(OCC(=O)NC2CCCCC2)c1` in this test?
Out: inactive

In: Which outcome was entered for the molecule `CN(C)CCNc1ccc(Cl)cc1[N+](=O)[O-]` in this test?
Out: inactive

In: Which outcome was entered for the molecule `O=C(Cc1cn(Cc2cccc(Cl)c2)c2ccccc12)N1CCCC1` in this test?
Out: inactive

In: Which outcome was entered for the molecule O=[N+]([O-])c1cc(C(F)(F)F)ccc1NC1CCN(Cc2ccccc2)C1 (stereo not given) in this test?
Out: inactive

In: Which outcome was entered for the molecule `O=C(NCCc1ccccc1)c1cnc2ccccc2n1` in this test?
Out: inactive

In: Which outcome was entered for the molecule CN(C)c1ccc(NC(=O)C2C3C=CC(C3)C2C(=O)O)cc1 (stereo not given) in this test?
Out: inactive

In: Which outcome was entered for the molecule `O=C1CN=C(Nc2cccc(C(F)(F)F)c2)N1C1CCCC1` in this test?
Out: inactive

In: Which outcome was entered for the molecule `COCCn1c(SCc2ccccc2F)nc2ccccc2c1=O` in this test?
Out: inactive

In: Which outcome was entered for the molecule CCOC(=O)C1=C(C)N(C)C(=S)NC1c1cccc(Cl)c1Cl (stereo not given) in this test?
Out: inactive

In: Which outcome was entered for the molecule COc1ccc(C(CNC(=O)c2ccc3c(c2)OCCO3)N(C)C)cc1 (stereo not given) in this test?
Out: active

In: Which outcome was entered for the molecule `CN(C)CCCNC(=O)/C=C/c1ccc(OCc2c(F)cccc2Cl)cc1` in this test?
Out: inactive

In: Which outcome was entered for the molecule `Cc1[nH]nc(-c2ccc(O)cc2O)c1-c1ccc(Cl)cc1` in this test?
Out: inactive

In: Which outcome was entered for the molecule COc1cccc(N(C(=O)c2snc(C(N)=O)c2N)C(C(=O)NCC2CCCO2)c2ccc3ncccc3c2)c1 (stereo not given) in this test?
Out: inactive

In: Which outcome was entered for the molecule CC1CCCN(C2=C(NS(=O)(=O)c3ccc(Br)cc3)C(=O)c3ccccc3C2=O)C1 (stereo not given) in this test?
Out: inactive

In: Which outcome was entered for the molecule `Cc1cc(-c2csc3ncnc(N4CCN(C)CC4)c23)cc(C)c1C` in this test?
Out: inactive

In: Which outcome was entered for the molecule `CCCCN=C(Nc1ccc(Cl)cc1)c1cccnc1` in this test?
Out: inactive

In: Which outcome was entered for the molecule `c1ccc2c(N3CCCCC3)nc(N3CCOCC3)nc2c1` in this test?
Out: inactive
